# Tested on: Calu-3
# assayProtocol: cell viability relative to DMSO; higher = less toxic
# cond: 72 h; 100 nM
Kindly supply the reported cell viability values for the records listed here.
Output spec: scalar in %, unitless text.

Lookup result for COc1ccc2c(c1)CN(C)CC2c1ccc(Cl)c(Cl)c1 (stereo not given) ; measured cell viability: 107

Value of measured cell viability for the entry `CC(=O)Nc1ccc(S(=O)(=O)Nc2ccc([N+](=O)[O-])cc2)cc1` : 103

Reported cell viability ( `C[C@@H]1CCCN1CCc1cc2cc(-c3ccc(C#N)cc3)ccc2o1` ) = 106

Lab note: `COc1cccc(CCc2ccccc2OCC[C@@H]2C[C@@H](O)CN2C)c1` gave cell viability of 97.2

`CC(C)c1cc2c(cc1S(=O)(=O)O)[C@@]1(C)CCC[C@@](C)(C(=O)O)[C@@H]1CC2` has a reported cell viability of 112

###

# Test system: HepG2
# assayProtocol: cell viability relative to DMSO; higher = less toxic
# cond: 72 h; 100 nM
Can you tell me cell viability for the items I'm about to list?
# output: bare number, implied unit %

Form: item `NCCCCCNCC12CC3CC(CC(C3)C1)C2` ; test system HepG2; cell viability: 98.1

Tested system HepG2; cell viability recorded for `CCCCCCCCN=c1ccn(CCCCCCCCCCn2ccc(=NCCCCCCCC)cc2)cc1` was 102

Bench note, HepG2: CN1CC[C@@]2(C)c3cc(O)ccc3N(C)[C@@H]12 [eseroline-(-)] , cell viability reads 110

Reading of cell viability for NC1CCN(c2nc3c(cc2F)c(=O)c(C(=O)O)cn3-c2ccc(F)cc2F)C1 (stereo unspecified) with HepG2: 95.9

Entry `CC(=O)Nc1ccc(S(=O)(=O)c2ccc(NC(C)=O)cc2)cc1` under HepG2 had cell viability of 86.3

With HepG2 as the test system, `CC(C)C[C@@H](N)C(=O)N[C@H]1C(=O)N[C@@H](CC(N)=O)C(=O)N[C@H]2C(=O)N[C@H]3C(=O)N[C@H](C(=O)N[C@H](C(=O)O)c4cc(O)cc(O)c4-c4cc3ccc4O)[C@H](O)c3ccc(c(Cl)c3)Oc3cc2cc(c3O[C@@H]2O[C@H](CO)[C@@H](O)[C@H](O)[C@H]2O[C@H]2C[C@](C)(N)[C@H](O)[C@H](C)O2)Oc2ccc(cc2Cl)[C@H]1O` showed cell viability of 97.3

For the compound `O=C(Nc1ccc(-c2ccncc2)cc1)N[C@H](CO)c1ccccc1` , the measured cell viability on HepG2 was 105

Entry `CC(C)[C@H]1[C@@H]2CC[C@@H](C2)[C@@H]1N` ; assay system HepG2; cell viability recorded at 93.6

Entry `Cc1ccc2c(=O)c3ccccc3n(CCCN)c2c1C` under HepG2 had cell viability of 102

Noted cell viability for N[C@@H](C(=O)O)c1ccc(C(=O)O)c(O)c1 (racemic) [4-carboxy-3-hydroxyphenylglycine-(RS)] , tested on HepG2: 104

// cell viability (HepG2) for `N[C@@H](Cc1c[nH]c2ccccc12)C(=O)O` = 103

###

# Test system: U2OS
# assayProtocol: cell viability relative to DMSO; higher = less toxic
# cond: 72 h; 10000 nM
readout: cell viability (%)
Respond numerically; units are % and should not be typed.

Just so you know, measured cell viability for `COc1cc2c(Nc3ccc(NC(=O)c4ccccc4)cc3)ncnc2cc1OCCCN1CCOCC1` came out at 102

Note to self: cell viability recorded for CCCCN(CCCC)CC(O)c1cc(Cl)cc2c1-c1ccc(Cl)cc1/C2=C/c1ccc(Cl)cc1 (stereo not given) was 95.2

For this compound ( O=C(NC(=O)c1c(F)cccc1F)Nc1cc(Cl)c(OC(F)(F)C(F)C(F)(F)F)cc1Cl (stereo not given) ), measured cell viability is 99.7

The recorded cell viability for CC(Oc1c(Cl)cccc1Cl)C1=NCCN1 (stereo not given) is 99.6

Reported cell viability for `Cc1cccc(C#Cc2ccccc2)n1` was 94

Value of cell viability reported for the compound `CCCCc1ccc(NS(=O)(=O)c2ccc(F)cc2)cc1` is 100

Short answer for `C[C@@H]1CCN(C(=O)CC#N)C[C@@H]1N(C)c1ncnc2[nH]ccc12` : cell viability was 96.9

The compound listed as `O=C(O)c1ccc(CN2CCC(CN[C@@H]3C[C@H]3c3ccccc3)CC2)cc1` has a reported cell viability of 96

Form: compound = `Cc1cccc(-c2[nH]c(C(C)(C)C)nc2-c2ccc3nccnc3c2)n1` ; cell viability = 79

GET /value?item= CC1Oc2cc(cnc2N)-c2c(nn(C)c2C#N)CN(C)C(=O)c2ccc(F)cc21 (stereo not given) &field=cell viability returns 83.5

###

# System: Caco-2
# assayProtocol: cell viability relative to DMSO; higher = less toxic
# cond: 72 h; 10 nM
Give measured cell viability for each item. Keep answers brief.
Enter your answer as a number in %; do not include the unit.

Per the record, `CC1=C(/C=C/C(C)=C/C=C/C(C)=C/C=C/C=C(C)/C=C/C=C(C)/C=C/C2=C(C)C(=O)[C@@H](O)CC2(C)C)C(C)(C)C[C@H](O)C1=O` has cell viability of 109

Looking up `Cc1ncc(NC(=O)c2ccc(CN3CCN(C)CC3)c(C(F)(F)F)c2)cc1Nc1nccc(-c2cccnc2)n1` , I see its cell viability listed as 107

For reference, reported cell viability for `CCCCCCCCN=c1ccn(CCCCCCCCCCn2ccc(=NCCCCCCCC)cc2)cc1` stands at 97.5

GET /value?item= `O=C(N[C@@H](Cc1c[nH]c2ccccc12)C(=O)O)c1ccc(Cl)cc1` &field=cell viability returns 102

get_value(item= c1ccc2sc(N3CCN(Cc4ccc5c(c4)OCO5)CC3)nc2c1 [2-[1-(4-piperonyl)piperazinyl]benzothiazole] , readout=cell viability) returns 92.2

response.value for COc1ccc2[nH]c([S+]([O-])Cc3ncc(C)c(OC)c3C)nc2c1 (stereo not drawn) (field: cell viability) = 92.2

`CN(C)[C@@H](CCOc1cccc2ccccc12)c1ccccc1` yielded cell viability of 96

Kindly note the recorded cell viability for Nc1ccc(C(=O)O)c(O)c1 [aminosalicylate] , which is 115

###

# Tested on: A549-ACE2 infected with SARS-CoV-2
# assayProtocol: morphology score (similarity to uninfected cells); higher = more like uninfected cells
# cond: 10 µM; 24 h
morphology score vs 0.8: at or above is Condition met, below is Condition not met.

Query :: Would you say Cc1ncc(NC(=O)c2ccc(CN3CCN(C)CC3)c(C(F)(F)F)c2)cc1Nc1nccc(-c2cccnc2)n1 [flumatinib] shows morphology score at minimum 0.8?
Result :: Condition not met

Query :: Reported morphology score reaches at least 0.8 for CCOc1ccc(-c2nc(-c3cccc4c3CCC4NCCO)no2)cc1OCC (stereo unspecified) [CYM-5442] ?
Result :: Condition met

Query :: Reported morphology score at or above 0.8? CC[C@@H](C)CNCC(=O)N1CCc2sccc2[C@@H]1COc1cccc(C)c1 [RU-SKI-43]
Result :: Condition met

Query :: State whether the measured morphology score reaches 0.8, counting equality as reaching it, for Nc1nc(N)c(N=O)c(OCC2CCCCC2)n1 [NU-6027]
Result :: Condition not met

Query :: Please indicate if the recorded morphology score for CN(C)c1ccccc1CN1CCCN(Cc2ccccc2N(C)C)C1c1ccncc1 [GANT-61] meets or exceeds 0.8.
Result :: Condition not met

###

# Test system: U2OS
# assayProtocol: cell viability relative to DMSO; higher = less toxic
# cond: 72 h; 10000 nM
readout: cell viability (%)
Reply with just the number (in %).

// field: cell viability; key: `C[C@@H]1COCCN1c1cc(C2([S@](C)(=N)=O)CC2)nc(-c2ccnc3[nH]ccc23)n1` ; value = 16.8

cell viability reported for this molecule `CC(C)(C)C(=O)NCCCC(=O)O` : 102

// cell viability value for `Cc1cccc(Nc2cc(Cl)nc(SCC(=O)O)n2)c1C` : 97.1

Per the records, this molecule ( `Cc1ccnc(NS(=O)(=O)c2ccc(N)cc2)n1` ) has cell viability equal to 100

Lookup result for `CC(C)c1cc2c(cc1S(=O)(=O)O)[C@@]1(C)CCC[C@@](C)(C(=O)O)[C@@H]1CC2` ; measured cell viability: 103

For record CC(=O)O[C@]1(C(C)=O)CC[C@H]2[C@@H]3C[C@H](C)C4=CC(=O)C=C[C@]4(C)[C@@]3(F)[C@@H](O)C[C@@]21C [fluorometholone-acetate] the listed cell viability is 96.2

Field cell viability (entry `Cc1cc(I)ccc1Nc1c(C(=O)NOCC2CC2)cc(F)c(F)c1F` ) reads 74.7

Lab book: cell viability of `COc1cc2c(cc1OC)CN(CCc1ccc(NC(=O)c3cc(OC)c(OC)cc3NC(=O)c3cnc4ccccc4c3)cc1)CC2` noted as 103

###

# System: Calu-3
# assayProtocol: relative viability EC50 (midpoint between 100% and the lowest measured viability); higher = less toxic
# cond: 72 h
Assignment: determine reported relative viability EC50 for the given compounds.
Unit nM implied. Number only.

Measured relative viability EC50, CCN1CCN(Cc2ccc(-c3cc4c(N[C@H](C)c5ccccc5)ncnc4[nH]3)cc2)CC1 [AEE788] : 548

// recorded relative viability EC50 for `CC(C)(C#N)c1ccc(N2C(=O)OCc3cnc4ccc(-c5cnc6ccccc6c5)cc4c32)cc1` : 939
